Entry source: ChEMBL document CHEMBL4689842

Test system: Fibroblast
method-notes: Incucyte cell viability with human fibroblast; note: filed as whole numbers so only -1 and 0 and 1 occur
Type: toxicity, cell-based
test-settings: 6 h, 10 µM, compound concentration 10 uM, replicate number 2, timepoint 6 hours
measured-property: Growth Rate
Please give only the number in your answer, with no unit.

[Q] Data request, read-out Growth Rate, for `Cn1cc(CCn2cnc(-c3cnn(C)c3)c2-c2ccc(C#N)cc2)cn1`
[A] 1

[Q] Data request, read-out Growth Rate, for `CCCc1c(OCCCOc2ccc(OCC(=O)O)cc2)ccc(C(C)=O)c1O`
[A] 0

[Q] Data request, read-out Growth Rate, for CC(C)(C)OC(=O)N1CCCC1CNC1CCC(c2cc(F)ccc2F)(S(=O)(=O)c2ccc(Cl)cc2)CC1 (centres undefined) [GSI-NC]
[A] 1

[Q] Data request, read-out Growth Rate, for CC(=O)C1=C(C)N(c2cccc(C(F)(F)F)c2)C(=O)N[C@@H]1c1ccc(C#N)nc1 [BAY-678]
[A] 0

* * *

Provide the recorded Population Fragmented Nuclei (%) for the entries that follow.
Test system: U2OS
method-notes: Multiplex assay against U2OS
Type: toxicity, cell-based
test-settings: human, 24 h, 1 µM, compound concentration 1 uM, replicate 2
Record the value in %, omitting the unit from your answer.

[Q] Data request, read-out Population Fragmented Nuclei (%), for `CCCS(=O)(=O)c1nc(NC2CC2)cc(-c2ccc3c(ccn3C3CC(C)(C)NC(C)(C)C3)c2)n1`
[A] 15

[Q] Data request, read-out Population Fragmented Nuclei (%), for `Cl.O=C(c1ccc(Nc2nccc(-c3cc4ccccc4s3)n2)cc1)N1CCC(N2CCCC2)CC1`
[A] 25

[Q] Data request, read-out Population Fragmented Nuclei (%), for `COC(=N)c1nc2ccc3ncnc(Nc4ccc(OC)cc4F)c3c2s1`
[A] 9

[Q] Data request, read-out Population Fragmented Nuclei (%), for `CCc1cccc(CC)c1NC(=O)c1nn(C)c2c1CCc1cnc(Nc3ccc(N4CCN(C)CC4)cc3OC)nc1-2`
[A] 18

[Q] Data request, read-out Population Fragmented Nuclei (%), for `CCCS(=O)(=O)Nc1ccc(F)c(C(=O)c2c[nH]c3ncc(Cl)cc23)c1F`
[A] 3

[Q] Data request, read-out Population Fragmented Nuclei (%), for `C=C1/C(=C\C=C2/CCC[C@]3(C)[C@@H]([C@H](C)/C=C/[C@H](C)C(C)C)CC[C@@H]23)C[C@@H](O)C[C@@H]1O`
[A] 5

[Q] Data request, read-out Population Fragmented Nuclei (%), for COc1cc2ncnc(Nc3ccc(F)c(Cl)c3)c2cc1NC(=O)/C=C/CN1CCCCC1 [DACOMITINIB ANHYDROUS]
[A] 14

[Q] Data request, read-out Population Fragmented Nuclei (%), for `Cn1nc(C(F)(F)F)cc1-c1cnc(N2CCc3cc(S(=O)(=O)Nc4c(F)cc(Cl)cc4F)cc(N4CCCC4=O)c32)nc1`
[A] 12

* * *

Provide the recorded Population Hoechst High Intensity Objects (%) for the entries that follow.
Test system: U2OS
method-notes: Multiplex assay against U2OS
Format: toxicity, cell-based
test-settings: human, 48 h, 1 µM, compound concentration 1 uM, replicate 1
Record the value in %, omitting the unit from your answer.

[Q] Data request, read-out Population Hoechst High Intensity Objects (%), for CCCn1c(=O)c2[nH]c(-c3cnn(Cc4cccc(C(F)(F)F)c4)c3)nc2n(CC)c1=O [GS 6201]
[A] 1

[Q] Data request, read-out Population Hoechst High Intensity Objects (%), for CN(C)C(=O)C(CCN1CCC(O)(c2ccc(Cl)cc2)CC1)(c1ccccc1)c1ccccc1.Cl [LOPERAMIDE HYDROCHLORIDE]
[A] 6

[Q] Data request, read-out Population Hoechst High Intensity Objects (%), for `O=C(Nc1ccc(-c2ccnc(Nc3ccc(N4CCOCC4)cc3)n2)cc1)[C@@H]1CCCN1`
[A] 1

[Q] Data request, read-out Population Hoechst High Intensity Objects (%), for CCOC(=O)c1c(C)[nH]c2ccc3c(c12)CN1CCc2cc(OC)ccc2C1O3 (stereo not drawn)
[A] 2

[Q] Data request, read-out Population Hoechst High Intensity Objects (%), for `O=C(Nc1ccc(Cl)cc1)Nc1cccc(-c2cccc(N3CCCC3)n2)c1`
[A] 6

[Q] Data request, read-out Population Hoechst High Intensity Objects (%), for `Cl.Oc1ccc2c3c1O[C@H]1c4[nH]c5c(c4C[C@@]4(O)[C@@H](C2)N(CC2CC2)CC[C@]314)C[C@@]1(O)[C@H]2Cc3ccc(O)c4c3[C@@]1(CCN2CC1CC1)[C@H]5O4`
[A] 3

[Q] Data request, read-out Population Hoechst High Intensity Objects (%), for `CCOc1cc(C(=O)N2CCC(N3CCN(C)CC3)CC2)ccc1Nc1ncc2c(n1)N(C1CCCC1)c1ccccc1C(=O)N2C`
[A] 3

[Q] Data request, read-out Population Hoechst High Intensity Objects (%), for `S=C(NCCCc1c[nH]cn1)NCCCN(Cc1ccc(Cl)c(Cl)c1)c1ccc(Br)cn1`
[A] 8

[Q] Data request, read-out Population Hoechst High Intensity Objects (%), for C=C1/C(=C\C=C2/CCC[C@]3(C)[C@@H]([C@H](C)/C=C/[C@H](C)C(C)C)CC[C@@H]23)C[C@@H](O)C[C@@H]1O [DOXERCALCIFEROL]
[A] 2

[Q] Data request, read-out Population Hoechst High Intensity Objects (%), for `CCCS(=O)(=O)c1nc(NC2CC2)cc(-c2ccc3c(ccn3C3CC(C)(C)NC(C)(C)C3)c2)n1`
[A] 6

[Q] Data request, read-out Population Hoechst High Intensity Objects (%), for `CCc1cccc(CC)c1NC(=O)c1nn(C)c2c1CCc1cnc(Nc3ccc(C(=O)NC4CCN(C)CC4)cc3OC(F)(F)F)nc1-2`
[A] 9

[Q] Data request, read-out Population Hoechst High Intensity Objects (%), for `CNc1cc(Oc2cc(C(=O)Nc3cc(N4CCN(C)CC4)cc(C(F)(F)F)c3)ccc2C)ncn1`
[A] 6

[Q] Data request, read-out Population Hoechst High Intensity Objects (%), for `Cl.O=c1c2cccn2c2ccccc2n1CCCN1CCC(c2ccc(Cl)cc2)CC1`
[A] 4

[Q] Data request, read-out Population Hoechst High Intensity Objects (%), for `O=C1N/C(=N/c2ccccc2F)S/C1=C\c1ccc(C(=O)O)cc1`
[A] 1

[Q] Data request, read-out Population Hoechst High Intensity Objects (%), for `Cc1ccc(C(=O)Nc2cccc(C(F)(F)F)c2)cc1Nc1nc(-c2cccnc2)nc2c1cnn2C`
[A] 4

[Q] Data request, read-out Population Hoechst High Intensity Objects (%), for `Cc1cc(C)c(S(=O)(=O)N(Cc2ccc(-c3cccc(S(C)(=O)=O)c3)cc2)Cc2ccc(C(F)(F)F)o2)c(C)c1`
[A] 3

[Q] Data request, read-out Population Hoechst High Intensity Objects (%), for CN1C2CCC1CC(OC(c1ccc(F)cc1)c1ccc(F)cc1)C2.Cl (stereo not drawn)
[A] 1

[Q] Data request, read-out Population Hoechst High Intensity Objects (%), for CN1CCC(=C2c3ccccc3CC(=O)c3sccc32)CC1.O=C(O)/C=C/C(=O)O [KETOTIFEN FUMARATE]
[A] 4

[Q] Data request, read-out Population Hoechst High Intensity Objects (%), for `CCn1c(=O)c(-c2ccc(-c3cncs3)cc2Cl)cc2cnc(Nc3ccc(N4CCN(C)CC4)cc3)nc21`
[A] 3

[Q] Data request, read-out Population Hoechst High Intensity Objects (%), for O=C(Nc1ccc(-n2nc(-c3cccnc3)cc2C(F)(F)F)cn1)c1ccc(-c2ccccc2)c(F)c1 [BI 2049]
[A] 5

[Q] Data request, read-out Population Hoechst High Intensity Objects (%), for Cc1cn(-c2cc(NC(=O)c3ccc(C)c(Nc4nccc(-c5cccnc5)n4)c3)cc(C(F)(F)F)c2)cn1 [NILOTINIB]
[A] 3

[Q] Data request, read-out Population Hoechst High Intensity Objects (%), for O=C(Cc1ccc(-c2ccc(OCCN3CCOCC3)cc2)cn1)NCc1ccccc1 [TIRBANIBULIN]
[A] 9

[Q] Data request, read-out Population Hoechst High Intensity Objects (%), for O=C1NC(=O)C(c2cnc3ccccn23)=C1c1cn2c3c(cc(F)cc13)CN(C(=O)N1CCCCC1)CC2 [LY-2090314]
[A] 3

* * *

Provide the recorded Population Tubulin-Different-Phenotype (%) for the entries that follow.
System: HEK-293T
method-notes: Multiplex assay against HEK293T;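 note: share of the cells with healthy nuclei that show this phenotype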
Assay type: toxicity, cell-based
test-settings: human, 24 h, 1 µM, compound concentration 1 uM, replicate 2
Record the value in %, omitting the unit from your answer.

[Q] Data request, read-out Population Tubulin-Different-Phenotype (%), for `CCOc1cc2ncc(C#N)c(Nc3ccc(OCc4ccccn4)c(Cl)c3)c2cc1NC(=O)/C=C/CN(C)C`
[A] 24

[Q] Data request, read-out Population Tubulin-Different-Phenotype (%), for `COc1cc(N2CCN(C)CC2)ccc1Nc1ncc2c(n1)N(C)c1ccccc1C(=O)N2C`
[A] 22

[Q] Data request, read-out Population Tubulin-Different-Phenotype (%), for `Cl.O=C(c1ccc(Nc2nccc(-c3cc4ccccc4s3)n2)cc1)N1CCC(N2CCCC2)CC1`
[A] 42

[Q] Data request, read-out Population Tubulin-Different-Phenotype (%), for `CCn1cc(-c2ccnc3[nH]c(-c4cccc(CN(C)C)c4)cc23)c(-c2ccc(NC(=O)N(C)C)cc2)n1`
[A] 43
